tested on: NCI-H226 lung; assay: NCI tumour cell line growth inhibition, 48 h
measured.quantity: TGI

Fill blank: measured TGI of the compound `Cc1nc2c(sc3nc4ccccc4n32)c(=O)[nH]1` is ____.
> 100 µM

Fill blank: measured TGI of the compound `CN(CCc1ccc(N)cc1)[C@H]1CCCC[C@H]1N1CCCC1` is ____.
> 100 µM

Fill blank: measured TGI of the compound `CC1S(=O)(=O)OCCOS1(=O)=O` is ____.
> 100 µM

---

test system: MDA-MB-231 breast; test: NCI tumour cell line growth inhibition, 48 h
measured.quantity: TGI

Fill blank: measured TGI of the molecule `N/C(=N/n1c(=S)[nH]c2ccccc2c1=O)Nn1c(=S)[nH]c2ccccc2c1=O` is ____.
> 100 µM

Fill blank: measured TGI of the molecule `CC1(C)CC(=O)c2c(nc3ccc4ccccc4c3c2-c2ccc(NC(=O)CCC(=O)Nc3ccc(-c4c5c(nc6ccc7ccccc7c46)CC(C)(C)CC5=O)cc3)cc2)C1` is ____.
> 100 µM

Fill blank: measured TGI of the molecule `O=C(N/N=C\c1ccc2ccccc2c1)Nc1ccc([N+](=O)[O-])cc1` is ____.
> 100 µM

Fill blank: measured TGI of the molecule `CC(=O)[O-].CC(=O)[O-].[NH2-].[Pt+2].c1ccc2cnccc2c1` is ____.
> 100 µM

Fill blank: measured TGI of the molecule `CNC(=S)N/N=C/c1cccc(C)n1` is ____.
> 89 µM

Fill blank: measured TGI of the molecule `Fc1cccc(COc2ccc(Nc3ncnc4cc(-c5ccc[nH]5)sc34)cc2Cl)c1` is ____.
> 15.7 µM

Fill blank: measured TGI of the molecule `CN(C)c1ccc(N=Nc2ccccn2)cc1` is ____.
> 100 µM

Fill blank: measured TGI of the molecule `CC(=O)Nc1ccc2c(c1)oc(=O)c1cc(NC(C)=O)ccc12` is ____.
> 100 µM

Fill blank: measured TGI of the molecule N#CC1(C#N)NC(c2ccsc2)C(C#N)(C#N)NC1c1ccsc1 (stereo not given) is ____.
> 100 µM

Fill blank: measured TGI of the molecule CC1(C)Oc2ccc3c(=O)cc(-c4ccc(F)cc4)oc3c2C1C(=O)O (stereo not given) is ____.
> 100 µM

Fill blank: measured TGI of the molecule `NCc1ccc(C(=O)O)cc1` is ____.
> 100 µM

Fill blank: measured TGI of the molecule CC[C@H]1OC([C@H](O)C/C=C\C#C[Si](C)(C)C)C/C=C\C[C@H]1O[Si](C)(C)C(C)(C)C (stereo not given in full) is ____.
> 100 µM

Fill blank: measured TGI of the molecule `CC[C@H](CC#N)OC(=O)N[C@@H](C)c1cccc(NC(=O)Nc2ccc(-c3cnco3)c(OC)c2)c1` is ____.
> 89.5 µM

Fill blank: measured TGI of the molecule CC(=O)OCC1OC(n2ccc(=O)[nH]c2=O)C(OC(C)=O)C1OC(C)=O (stereo not given) is ____.
> 100 µM

Fill blank: measured TGI of the molecule `CC(C)C[P+](c1ccccc1)(c1ccccc1)c1ccccc1` is ____.
> 100 µM
